# PROTOCOL DESCRIPTION: Binding affinity to human recombinant TTR Y78F mutant after 5 mins by isothermal titration calorimetry
READOUT NAME: Kd (nM)
Kindly provide the numeric value in nM only, without the unit symbol.

// below: answered compounds
1. O=C(O)c1cc(-c2ccc(F)cc2F)cc(Br)c1O | 194
2. O=C(O)c1ccccc1Nc1cc(Cl)cc(C(F)(F)F)c1 | 86
3. O=C(O)c1ccccc1Nc1cc(Br)cc(C(F)(F)F)c1 | 64
4. O=C(O)c1cc(-c2ccc(F)cc2F)ccc1O | 1160
5. O=C(O)c1ccccc1Nc1cccc(C(F)(F)F)c1 | 109
6. O=C(O)c1ccccc1Nc1cc(I)cc(C(F)(F)F)c1 | 85
7. O=C(O)c1cc(-c2ccc(F)cc2F)cc(Cl)c1O | 375
8. O=C(O)c1cc(-c2ccc(F)cc2F)cc(F)c1O | 1120

# input Quote Kd reported for O=C(O)c1cc(-c2ccc(F)cc2F)cc(I)c1O please.
# output 87

# input Quote Kd reported for O=C(O)c1ccccc1Nc1cc(F)cc(C(F)(F)F)c1 please.
# output 91

* * *

Listing of recorded inhibition by entry.
# Organism: Homo sapiens
# PROTOCOL DESCRIPTION: Inhibition of human recombinant TTR Y78F mutant-mediated fibrillogenesis at 40 uM after 30 mins by turbidimetric assay relative to control
Kindly provide the numeric value in % only, without the unit symbol.

1. O=C(O)c1cc(-c2ccc(Cl)cc2Cl)ccc1O | 75
2. O=[N+]([O-])c1ccc(O)c([N+](=O)[O-])c1 [2,4-DINITROPHENOL] | 77
3. O=C(O)c1ccccc1Nc1cc(Br)cc(C(F)(F)F)c1 | 91
4. O=C(O)c1cc(-c2ccc(F)cc2F)cc(Br)c1O | 88
5. O=C(O)Cc1ccccc1Nc1c(Cl)cccc1Cl [DICLOFENAC] | 74

As a next step, examine the compound that follows.
# input Quote inhibition reported for N[C@@H](Cc1cc(I)c(Oc2cc(I)c(O)c(I)c2)c(I)c1)C(=O)O [LEVOTHYROXINE] please.
# output 80

* * *

# Species on record: Homo sapiens
# PROTOCOL DESCRIPTION: Inhibition of human recombinant TTR Y78F mutant-mediated fibrillogenesis at 40 uM after 30 mins by turbidimetric assay relative to control
Classify by measured inhibition: condition met if it is equal to or exceeds 90%, condition not met if it is smaller.

1. Oc1c(Cl)cc(-c2cc(Cl)c(O)c(Cl)c2)cc1Cl | condition met
2. O=C(O)c1cc(-c2ccc(F)cc2F)cc(I)c1O | condition met
3. CC1=C(/C=C/C(C)=C/C=C/C(C)=C/C(=O)O)C(C)(C)CCC1 [TRETINOIN] | condition met
4. O=C(O)c1ccccc1Nc1cc(I)cc(C(F)(F)F)c1 | condition met
5. CC(C(=O)O)c1ccc(-c2ccccc2)c(F)c1 (stereo not given) [FLURBIPROFEN] | condition not met

Now for a further compound.
# input Is inhibition for O=C(O)c1ccccc1Nc1cc(Cl)cc(C(F)(F)F)c1 at or above 90%?
# output condition not met

* * *

Listing of recorded inhibition by entry.
# Organism: Homo sapiens
# PROTOCOL DESCRIPTION: Inhibition of human recombinant TTR Y78F mutant-mediated fibrillogenesis at 40 uM after 30 mins by turbidimetric assay relative to control
Kindly provide the numeric value in % only, without the unit symbol.

# input Quote inhibition reported for Oc1ccc(/C=C/c2cc(O)cc(O)c2)cc1 please.
# output 89

# input Quote inhibition reported for O=C(O)c1ccccc1Nc1cc(F)cc(C(F)(F)F)c1 please.
# output 91

# input Quote inhibition reported for O=C(O)c1ccccc1Nc1cccc(C(F)(F)F)c1 please.
# output 89

# input Quote inhibition reported for O=C(O)c1cc(-c2ccc(F)cc2F)cc(Cl)c1O please.
# output 89

# input Quote inhibition reported for O=C(O)c1ccc(-c2cc(F)cc(F)c2)cc1 please.
# output 89

# input Quote inhibition reported for O=C(O)Cc1cc(I)c(Oc2cc(I)c(O)c(I)c2)c(I)c1 please.
# output 93

# input Quote inhibition reported for O=C(O)c1cc(-c2ccc(F)cc2F)cc(F)c1O please.
# output 87

# input Quote inhibition reported for CC/C(=C(/CC)c1ccc(O)cc1)c1ccc(O)cc1 please.
# output 67

# input Quote inhibition reported for O=C(O)c1cc(-c2ccc(F)cc2F)ccc1O please.
# output 85
